- System: SF3B1-mutant K562 cells
- measurement_description: Mini-screen: pooled synthetic intron mini-library in HSV-TK, GCV treatment, full-length intron sequencing from genomic DNA
- Format: cell-based
- experimental_parameters: genotype K700E (SF3B1+/K700E) K562; GCV 100 ug/mL; day 6; vector hPGK-PuroR-P2A-HSV-TK
measurement_label: fold-change (estimated fold-change in intron abundance in gDNA)

molecule	result
intron_2258: 100 nt MTERFD3 intron 1-derived synthetic intron, deletion 15to65; SEQ ID NO 57/65 (nucleic acid, expressed or natural sequence) DNA 1: GTGAGTCGCCCCCTTAGGCCTTGTAGGCCATGGTAAGGCATTTCTATGTTTTATTTTACTTTGTCTTTATCCTAAAATGCCATTGGCAAGTTTATTGCAG DNA 2: GTGAGTCGCCCCCTTAGGCCTTGTAGGCCATGGTAAGGCATTTCTATGTTTTATTTTACTTTGTCTTTATCCTAAAATGCCATTGGCAAGTTTATTGCAG	0.4996
